- target_or_test_system: Human PD-L1/PD-1 (Homo sapiens)
- Construct: TVMV protease cleavage site (C); made in house; host or cells: HEK293T cells
- Sequence (Q9NZQ7 with tags, fused parts or gaps): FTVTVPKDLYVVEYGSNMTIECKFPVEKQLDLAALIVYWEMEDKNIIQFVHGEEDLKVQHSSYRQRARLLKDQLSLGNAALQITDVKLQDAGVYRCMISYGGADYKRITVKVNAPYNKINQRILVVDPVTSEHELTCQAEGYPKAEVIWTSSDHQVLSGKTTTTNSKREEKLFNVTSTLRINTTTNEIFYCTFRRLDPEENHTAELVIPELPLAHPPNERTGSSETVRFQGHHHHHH
- protocol_summary: HTRF Human PD-L1/PD-1 binding assay (PD-1-Ig/PD-L1-His)
- experimental_conditions: PD-L1-His 10 nM, PD-1-Ig 20 nM; class symbol; read-out: HTRF Human PD-L1/PD-1 Binding Assay IC50 Range
- Description: Methods for Testing the Ability of Macrocyclic Peptides to Compete for the Binding of PD-1 to PD-L1 Using Homogenous Time-Resolved Fluorescence (HTRF) Binding Assays The ability of the macrocyclic peptides of the present disclosure to bind to PD-L1 was investigated using a PD-1/PD-L1 Homogenous Time-Resolved Fluorescence (HTRF) binding assay. Homogenous Time-Resolved Fluorescence (HTRF) Assays of Binding of Soluble PD-1 to Soluble PD-L1. […]
Where a SMILES comes first, the peptide text is derived from it. Bridges are numbered along the chain shown (N, C = ends). [ ]: non-standard residue; d: D form. ξ: configuration not given here. Hyp = O=C(O)[C@@H]1C[C@@H](O)CN1; NMeNle = CCCC[C@H](NC)C(=O)O; NMeA = CN[C@@H](C)C(=O)O; ξC = NC(CS)C(=O)O
observed_property: IC50

Indicate its recorded IC50; the molecule in question is CCCC[C@H]1C(=O)N(C)[C@@H](C)C(=O)N[C@@H](CCCNC(=N)N)C(=O)NC(C(=O)NCC(N)=O)CSCC(=O)N[C@@H](Cc2ccc(O)cc2)C(=O)N(C)[C@@H](C)C(=O)N[C@@H](CC(N)=O)C(=O)N2CCC[C@H]2C(=O)N[C@@H](Cc2cnc[nH]2)C(=O)N[C@H](CO)C(=O)N2C[C@H](O)C[C@H]2C(=O)N[C@@H](Cc2c[nH]c3ccccc23)C(=O)N[C@@H](CO)C(=O)N[C@@H](Cc2c[nH]c3ccccc23)C(=O)N1C (stereo partly shown) [Example 9119] ({CH2CO}-Y[NMeA]NPH[dS][Hyp]WSW[NMeNle][NMeA]R[ξC]G-NH2; thioether N-14)
10 to 99.9 nM
